Molecular target: Nitric oxide synthase 1 (Rattus norvegicus) (UniProt P29476)
Sequence (P29476 whole entry): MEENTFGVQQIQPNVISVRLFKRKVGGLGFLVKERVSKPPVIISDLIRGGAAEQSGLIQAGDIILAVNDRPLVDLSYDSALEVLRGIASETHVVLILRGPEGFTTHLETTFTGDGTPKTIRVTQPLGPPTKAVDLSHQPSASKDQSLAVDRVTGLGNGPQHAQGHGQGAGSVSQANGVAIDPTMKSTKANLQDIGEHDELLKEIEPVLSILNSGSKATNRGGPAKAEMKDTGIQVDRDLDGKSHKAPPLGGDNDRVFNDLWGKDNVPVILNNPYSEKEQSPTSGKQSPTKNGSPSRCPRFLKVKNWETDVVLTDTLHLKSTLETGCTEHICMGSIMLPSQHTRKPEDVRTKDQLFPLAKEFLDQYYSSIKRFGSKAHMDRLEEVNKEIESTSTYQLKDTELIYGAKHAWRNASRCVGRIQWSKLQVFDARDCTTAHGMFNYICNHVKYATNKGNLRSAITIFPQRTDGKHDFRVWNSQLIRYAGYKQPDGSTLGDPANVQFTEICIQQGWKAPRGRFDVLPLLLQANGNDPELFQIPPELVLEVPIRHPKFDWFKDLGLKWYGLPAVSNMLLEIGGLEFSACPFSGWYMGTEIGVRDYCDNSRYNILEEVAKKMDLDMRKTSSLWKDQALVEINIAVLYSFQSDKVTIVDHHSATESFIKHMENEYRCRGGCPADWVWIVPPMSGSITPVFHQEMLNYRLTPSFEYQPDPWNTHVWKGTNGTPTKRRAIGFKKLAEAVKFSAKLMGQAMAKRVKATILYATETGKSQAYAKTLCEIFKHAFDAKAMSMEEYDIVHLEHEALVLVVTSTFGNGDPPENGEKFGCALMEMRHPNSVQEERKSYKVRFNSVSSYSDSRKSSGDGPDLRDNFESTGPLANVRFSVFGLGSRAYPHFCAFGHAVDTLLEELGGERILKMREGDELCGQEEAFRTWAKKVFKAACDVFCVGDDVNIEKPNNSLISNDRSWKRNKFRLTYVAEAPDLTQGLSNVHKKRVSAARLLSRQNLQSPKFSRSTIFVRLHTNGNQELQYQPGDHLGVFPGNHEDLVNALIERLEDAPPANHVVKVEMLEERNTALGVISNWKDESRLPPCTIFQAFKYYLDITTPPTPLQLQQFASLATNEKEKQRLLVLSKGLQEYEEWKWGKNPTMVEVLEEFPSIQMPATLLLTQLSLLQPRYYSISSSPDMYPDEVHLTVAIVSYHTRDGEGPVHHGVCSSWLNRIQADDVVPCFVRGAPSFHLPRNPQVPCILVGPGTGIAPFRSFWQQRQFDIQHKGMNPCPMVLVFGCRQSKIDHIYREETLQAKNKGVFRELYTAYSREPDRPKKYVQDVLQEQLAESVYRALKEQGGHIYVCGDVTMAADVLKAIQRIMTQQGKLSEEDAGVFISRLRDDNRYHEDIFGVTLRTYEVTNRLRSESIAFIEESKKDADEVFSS
Assay: In vitro percent inhibition of rat cerebellar neuronal nitric oxide synthase at a concentration of 100 uM
result.type: inhibition (%)

{"chemical.smiles": "COc1ccc2c[nH]nc2c1", "scale.unit": "%", "readout.value": 0}
{"chemical.smiles": "COc1cccc2c[nH]nc12", "scale.unit": "%", "readout.value": 80}
{"chemical.smiles": "COc1cccc2[nH]ncc12", "scale.unit": "%", "readout.value": 30}
{"chemical.smiles": "CCOc1cccc2c[nH]nc12", "scale.unit": "%", "readout.value": 50}
{"chemical.smiles": "Oc1cccc2cn[nH]c12", "scale.unit": "%", "readout.value": 7}
{"chemical.smiles": "COc1ccc2[nH]ncc2c1", "scale.unit": "%", "readout.value": 25}
{"chemical.smiles": "c1ccc(COc2cccc3c[nH]nc23)cc1", "scale.unit": "%", "readout.value": 0}
{"chemical.smiles": "COc1cccc2c(I)[nH]nc12", "scale.unit": "%", "readout.value": 0}

The reported measurements were obtained from ChEMBL document CHEMBL1134250.
